# experiment: DUSP6 inhibitors restoring Erk phosphorylation by chemical complementation, primary imaging in DUSP6-transfected HeLa (AID 609)
# details: HeLa MKP-3 transfected, phospho-Erk imaging KS statistic; measured here: nuclear pErk red intensity z-score; at 10 µM; stronger effect = higher value; cells stimulated with TPA for 15 min
value.kind: z-score

Some solved entries appear below for comparison.
{"compound": "C=CC[N+](C)(C)CCCNC(=O)/C=N/O", "z-score": -1.51}
{"compound": "CCC(=O)Nc1nc2ccccc2n1CCN(C)C", "z-score": -0.675}
{"compound": "CCN(CC)CCN1C(=O)C(=O)/C(=C(/O)c2c(C)[nH]c(C(=O)OC)c2C)C1c1ccc(OC)cc1 (stereo unspecified)", "z-score": 0.967}
{"compound": "CC1(C)CC(=O)C2=C(C1)OC(N)=C(C#N)C21C(=O)N(CN2CCOCC2)c2ccccc21 (stereo unspecified)", "z-score": -1.15}

z-score recorded for this compound, CN(C)CCCOC(=O)c1ccc(Cl)cc1Cl , is 0.409

Short answer for CCSc1nnc(NC(=O)C(C(F)(F)F)C(F)(F)F)s1 : z-score was -1.04

###

The entries below are paired with their reported inhibition.
# system.name: Dual specificity protein phosphatase 6 (Homo sapiens)
# experiment: DUSP6 inhibitors restoring Erk phosphorylation by chemical complementation, primary imaging in DUSP6-transfected HeLa (AID 609);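 for inhibition: phospho-Erk level distribution per well compared with pooled transfected vehicle control wells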
# details: HeLa MKP-3 transfected, phospho-Erk imaging KS statistic; at 10 µM; stronger effect = higher value; cells stimulated with TPA for 15 min
Please state the figure in %; there is no need to write the unit.

Examples with answers:
{"molecule": "COCc1[nH]nc2c1C(c1sccc1C)C(C#N)=C(N)O2 (stereo not drawn)", "inhibition (%)": 8.31}
{"molecule": "Cc1nn(C)cc1/C=N/n1nnnc1N", "inhibition (%)": 4.37}

Entry under test: COC(=O)c1ccc(C2/C(=C(\O)c3cccc(OC)c3)C(=O)C(=O)N2CCCN(C)C)cc1 (stereo not drawn) . Its inhibition was 7.21

Query COC(=O)CC1=C(C(=O)OC)C(c2cccc(OCC(N)=O)c2)C(C#N)=C(N)O1 (stereo not drawn) yields inhibition of 27.5

Recorded result, C[n+]1cccc(CNC(=O)/C=N/O)c1 , inhibition: 6.04

Notebook: COc1ccc(CCNc2oc(COc3ccccc3)nc2C#N)cc1 , inhibition read as -3.95

The recorded inhibition for Cc1nc2c(o1)CCc1ccccc1C2N1CCN(C)CC1 (stereo not drawn) is 17.8

Entry CCCC(=O)Nc1nn(CCC)c2nc3ccccc3cc12 , inhibition reported as 2.71

###

Items are presented alongside their recorded z-score.
# experiment: DUSP6 inhibitors restoring Erk phosphorylation by chemical complementation, primary imaging in DUSP6-transfected HeLa (AID 609)
# details: HeLa MKP-3 transfected, phospho-Erk imaging KS statistic; measured here: nuclear c-Myc green intensity z-score; at 10 µM; cells stimulated with TPA for 15 min
Quick one: just the number, no unit, thanks!

Before answering, review these 5 worked examples.
{"compound": "CC1CCN(c2[nH]c(=S)c(C#N)c3c2CCCC3)CC1", "z-score": -0.606}
{"compound": "Cc1c(C2CC(=O)N(c3ccccc3)C2=O)[nH]n(-c2ccccc2)c1=O (stereo unspecified)", "z-score": 0.971}
{"compound": "O=c1[nH]c2sc3c(c2c(=O)n1Cc1ccccc1)CCC3", "z-score": 0.335}
{"compound": "CCOC(=O)CNS(=O)(=O)c1cc(-c2n[nH]c(=O)c3ccccc23)ccc1C", "z-score": 0.186}
{"compound": "COC(=O)c1[nH]c(C)c(/C(O)=C2\\C(=O)C(=O)N(CCN3CCOCC3)C2c2ccccc2OC)c1C (stereo unspecified)", "z-score": 0.251}

Reported z-score for CCc1c(C)c2cc(Cl)c(O)c(CN3CCCCC3)c2oc1=O was 0.0643

Entry COc1ccccc1NC(=O)c1c(C)cc(=O)oc1C , z-score reported as -0.0987

Measured z-score of COc1ccc(-n2ncc3c(N4CCC(C(N)=O)CC4)ncnc32)cc1 : 1.24

The compound c1ccc(-n2c(Cc3cccnc3)nc3cnccc32)cc1 showed z-score equal to -1.1

// recorded z-score for CN(C)C(=O)COn1c(SCC(=O)N(C)C)nc2ccccc2c1=O : -0.176

The compound listed as CCN(CC)CCN1C(=O)C(=O)/C(=C(/O)c2c(C)[nH]c(C(=O)OC)c2C)C1c1ccccc1 (stereo unspecified) has a reported z-score of 0.96

meta.source: PubChem BioAssay
